Here, each record is paired with measured MIC data.
system: Candida albicans; experiment: Antifungal activity against Candida albicans ATCC 10231 by broth dilution method; format: functional

Molecule	Measured result
Cc1c(/C=N/NS(=O)(=O)c2ccccc2)no[n+]1[O-]	> 100 µM
Cc1c(/C=N/NS(=O)(=O)c2ccc(C(C)(C)C)cc2)no[n+]1[O-]	> 100 µM
Cc1c(/C=N/NS(=O)(=O)c2ccc([N+](=O)[O-])cc2)no[n+]1[O-]	> 100 µM

Item under review: Cc1ccc(S(=O)(=O)N/N=C/c2no[n+]([O-])c2C)cc1 . Reported MIC?
> 100 µM

Same read-out for COc1ccc(S(=O)(=O)N/N=C/c2no[n+]([O-])c2C)cc1 ?
> 100 µM

Also C[C@@H]1[C@H](O)[C@@H](C)/C=C/C=C/C=C/C=C/C=C/C=C/C=C/[C@H](O[C@@H]2O[C@H](C)[C@@H](O)[C@H](N)[C@@H]2O)C[C@@H]2O[C@](O)(C[C@@H](O)C[C@@H](O)[C@H](O)CC[C@@H](O)C[C@@H](O)CC(=O)O[C@H]1C)C[C@H](O)[C@H]2C(=O)O [AMPHOTERICIN B] ?
0.027 µM
